test-summary: chemical genetic growth profiling, strain panel (AID 1159580);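 note: tested at 20 µM; growth read once vehicle control cultures reached saturation at 30 °C; 1 = growth at the plate median or of vehicle wells; lower values mean less growth of the strain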
test-conditions: S. cerevisiae deletion strains, growth OD, locus YLR262C, strain YPT6, hits give low values
In all, about 5,500 compounds went through this assay and about 2,000 (36%) were called active. About 18% were inconclusive and are not listed. The list shows a part of the results.
Answer each item with its documented normalized growth.

[
  {
    "molecule": "O=c1cc(C(F)(F)F)[nH]c2c(Cl)cccc12",
    "normalized growth": "0.847 (inactive)"
  }
]

Please give normalized growth for each item listed below.
1. CCCCCCCCCCCCCCCCCCOCC(O)CO (stereo unspecified)
2. N#Cc1nccnc1Sc1ccc(Cl)cc1

Result:
["1.01 (inactive)", "0.729 (active)"]

Please give normalized growth for each item listed below.
1. O=C(O)c1cc(=O)c2cccc(O)c2[nH]1
2. CC(=O)OCC(=O)[C@@]1(O)CCC2C3CC[C@@H]4C[C@H](OC(C)=O)CC[C@]4(C)C3C(=O)C[C@@]21C (stereo partly specified)
3. O=C(O)c1cc(=O)c2c(Cl)cc(Cl)cc2[nH]1

Result:
1: 0.971 (inactive); 2: 1.03 (inactive); 3: 1.03 (inactive)
